system: SMMC-7721; assay: Cytotoxicity against human SMMC-7721 cells assessed as cell viability after 48 hrs by MTT assay; format: functional, cell-based; conditions: SMMC-7721, 48 h
quantity.kind: IC50 (nM)

• COC1OC(=O)C(Cl)=C1N1CCN([C@@H]2O[C@@H]3O[C@@]4(C)CC[C@H]5[C@H](C)CC[C@@H]([C@H]2C)[C@@]35OO4)CC1 (stereo partly specified) = 110
